# protocolText: solubility determination by Chasing Equilibrium pH-metric titration
# Assay type: physicochemical
# experimentalContext: 0.15 M KCl solution titrated with acid and base, saline or isotonic, thermodynamic from solid; straight line interpolation of points A and B to zero pH slope; 0.15M KCl solution; sample introduced as sodium salt; read-out: equilibrium solubility (concentration of unionised compound at zero pH slope)

compound: O=C(O)Cc1ccccc1Nc1c(Cl)cccc1Cl [diclofenac]
solubility thermodynamic: ~0.732 µg/mL

Values compiled from patent US7723119B2.
